Origin of values: the supplement of paper PMC10567573

B1: CLINT1 (parent)
chain: VVTSAREHIYDLRSLENYHFVDEH

# Variants of: B1
# PROTOCOL_NOTES: protein stability index of a GFP-peptide fusion (GPS, HEK-293T) (PSI 1-6); higher = more stable;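 further: lentivirally expressed fusions sorted by FACS into six bins by GFP to DsRed ratio, PSI derived from sequencing read proportions per bin multiplied by bin number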
# PARTICULARS: c terminus: a fixed tail appended
Classification field: enter satisfied for protein stability index values not below 3, not satisfied for values below it.

>>> cat("F20I")
"satisfied"
>>> cat("V21K")
"not satisfied"
>>> cat("H19A")
"not satisfied"
>>> cat("F20M")
"satisfied"
>>> cat("F20A")
"satisfied"
>>> cat("V21D")
"satisfied"
>>> cat("F20G")
"satisfied"
>>> cat("E7S")
"not satisfied"
>>> cat("D11F")
"not satisfied"
>>> cat("E16C")
"not satisfied"
>>> cat("I9Y")
"not satisfied"
